Each entry below lists one item and its recorded viability, T/C value.
Test system: 282377-053-R-J1-PDC complex spheroid viability;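 note: spheroids exposed to agents for seven days before readout; luminescence viability as percent of DMSO vehicle control wells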
procedure_text: Anticancer human tumor 282377-053-R-J1-PDC patient-derived colon adenocarcinoma cell line growth inhibition [RAS]
test_context: second compound 0.316 µM; first compound 1 µM; active compounds read low

{"columns": ["molecule", "viability, T/C"],
 "data": [
  ["C[C@@H](NC(=O)c1ncnc(N)c1Cl)c1ncc(C(=O)Nc2cc(C(F)(F)F)c(Cl)cn2)s1 + C=CC(=O)N1CCN(c2nc(OCC3CCCN3C)nc3c(F)c(-c4nc(N)cc(C)c4C(F)(F)F)c(Cl)cc23)C(C)C1", "81.6%"],
  ["Nc1ccn(C2OC(CO)C(O)C2(F)F)c(=O)n1 (stereo not drawn) + C=CC(=O)N1CCN(c2nc(OCC3CCCN3C)nc3c(F)c(-c4nc(N)cc(C)c4C(F)(F)F)c(Cl)cc23)C(C)C1", "32.9%"],
  ["CC1(O)CCCC1n1c(=O)c(C(F)F)cc2cnc(NC3CCN(S(C)(=O)=O)CC3)nc21 (stereo not drawn) + C=CC(=O)N1CCN(c2nc(OCC3CCCN3C)nc3c(F)c(-c4nc(N)cc(C)c4C(F)(F)F)c(Cl)cc23)C(C)C1", "111%"]
]}
